Origin of measurements: paper PMC5540273

# Tested on: AURKC
# cond: concentration: 1 μM,replicates: in singlicate; n = 1;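 also: KINOMEscan kinase panel screen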
Catalogue of %Inh readings, one per entry.
Numeric only. Scale: %

>>> readout_value("O=C(Nc1cccc(Oc2ccc3nccn3n2)c1)Nc1cccc(C(F)(F)F)c1")
41
>>> readout_value("Cc1ccc2c(-c3ccnc(Nc4ccc(C(F)(F)F)cc4)n3)cnn2n1")
4
>>> readout_value("CN1CCN(CCCNc2nccc(-c3c(-c4ccc(F)cc4)nn4cc(C(N)=O)ccc34)n2)CC1")
10
>>> readout_value("CC(=O)c1c(-c2ccncc2)[nH]c(-c2ccncc2)c1C")
5
>>> readout_value("COc1cccc(C2=C(Nc3cccc(Cl)c3)C(=O)NC2=O)c1")
3
>>> readout_value("C[C@@H]1CNc2c(sc3ccc4nc(-c5ccncc5)ccc4c23)C(=O)N1")
9

*Q* Specify %Inh for "Cc1cccc2c(-c3ccncc3)c(-c3ccc(F)cc3)nn12.Cl" and stop.
*A* 0

*Q* Specify %Inh for CC(C(=O)NC1CCN(c2ccnc(Nc3ccc(F)cc3)n2)C1)c1ccc(Cl)cc1 (stereo not drawn) and stop.
*A* 47

*Q* Specify %Inh for "COc1cccc(OC)c1C(=O)Nc1cccc(-c2nn3ccccc3c2-c2ccnc(Nc3cccc(F)c3)n2)c1" and stop.
*A* 70

====

# Test system: MYLK2
# cond: concentration: 1 μM,replicates: in singlicate; n = 1
Could you label it True if measured %Inh is 10% or higher, and False otherwise?

*Q* Is the recorded value of %Inh equal to or greater than 10% for this compound? O=c1[nH]cc(-c2ccc(O)cc2)c2sc(-c3ccncc3)cc12 [GSK1033723]
*A* True

*Q* Is the recorded value of %Inh equal to or greater than 10% for this compound? CC(C)c1nc(-c2cccc(NS(=O)(=O)c3ccccc3)c2)c(-c2ccnc(Nc3ccc4c(c3)CN(C)CC4)n2)s1 [GSK1649598]
*A* False

*Q* Is the recorded value of %Inh equal to or greater than 10% for this compound? COc1cc2c(Nc3ccc(NC(=O)c4ccccc4)cc3)ncnc2cc1OCCCN1CCOCC1 [GSK301329]
*A* False

*Q* Is the recorded value of %Inh equal to or greater than 10% for this compound? COc1cccc(OC)c1C(=O)Nc1cccc(-c2nn3ccccc3c2-c2ccnc(Nc3cccc(F)c3)n2)c1 [GSK361065]
*A* False

*Q* Is the recorded value of %Inh equal to or greater than 10% for this compound? "Cn1ccc2ncnc(Oc3ccc(NC(=O)Nc4cnn(C(C)(C)C)c4)c(Cl)c3)c21"
*A* False

*Q* Is the recorded value of %Inh equal to or greater than 10% for this compound? "Cn1ccc2ncnc(Oc3ccc(NC(=O)Nc4cc(C(C)(C)C)on4)c(Cl)c3)c21"
*A* True

*Q* Is the recorded value of %Inh equal to or greater than 10% for this compound? CCN1CCN(CCCC(=O)Nc2n[nH]c3nc(-c4ccc(O)cc4)c(Br)cc23)CC1 [SB-731579]
*A* True

*Q* Is the recorded value of %Inh equal to or greater than 10% for this compound? "C[C@@H]1CCN(C(=O)N2CCCC2)C[C@@H]1N(C)c1ncnc2[nH]ccc12"
*A* False

====

Catalogue of %Inh readings, one per entry.
# Test system: NEK3
# cond: concentration: 1 μM,replicates: in singlicate; n = 1
Numeric only. Scale: %

>>> readout_value("CSc1nccc(-c2c(-c3ccc(F)cc3)ncn2CCCN2CCOCC2)n1.Cl [SB-217146]")
38

*Q* Specify %Inh for C[C@@H](Oc1cc(-n2cnc3ccc(-c4ccncc4)cc32)sc1C(N)=O)c1ccccc1Cl [GSK483724] and stop.
*A* 0

*Q* Specify %Inh for CC(C)S(=O)(=O)N1CCN(Cc2ccc3c(c2)nc(NC(=O)c2ccsc2)n3C[C@H](O)c2ccccc2)CC1 [GW635815] and stop.
*A* 0

*Q* Specify %Inh for CC(=O)c1c(-c2ccncc2)[nH]c(-c2ccncc2)c1C [GW493036] and stop.
*A* 47

*Q* Specify %Inh for "Cn1ccc2ncnc(Oc3ccc(NC(=O)Nc4cncc(C(F)(F)F)c4)c(Cl)c3)c21" and stop.
*A* 13

*Q* Specify %Inh for N#Cc1cccc(C(=O)NC2CCN(c3ccnc(Nc4ccc(F)cc4)n3)C2)c1 (centres unmarked) [GSK1379708] and stop.
*A* 7

*Q* Specify %Inh for CCn1c(-c2nonc2N)nc2cncc(CNC3CCNCC3)c21.Cl [SB-747651] and stop.
*A* 15

*Q* Specify %Inh for COc1cccc(C2=C(Nc3cccc(Cl)c3)C(=O)NC2=O)c1 [SB-341556] and stop.
*A* 5

====

# Tested on: RIOK2
# cond: concentration: 1 μM,replicates: in singlicate; n = 1
observed.property: %Inh (%)
Numeric only. Scale: %

The examples below pair each entry with its known result.
>>> readout_value("O=C(NCC1CC1)c1ccc(-c2cc(C(=O)NC3CC3)ccc2F)cc1")
0
>>> readout_value("CN1CCN(CCCNc2nccc(-c3c(-c4ccc(F)cc4)nn4cc(C(N)=O)ccc34)n2)CC1")
27
>>> readout_value("COc1cccc(C2=C(Nc3cccc(Cl)c3)C(=O)NC2=O)c1")
14
>>> readout_value("Cc1cccc2c(-c3ccncc3)c(-c3ccc(F)cc3)nn12.Cl")
100
>>> readout_value("O=C1NCCc2[nH]c(-c3ccncc3)cc21")
20

*Q* Specify %Inh for "Cn1ccc2ncnc(Oc3ccc(NC(=O)Nc4cccc(C(F)(F)F)c4)c(F)c3)c21" and stop.
*A* 0

*Q* Specify %Inh for COc1cccc(CNC(=O)NC2CCN(c3ccnc(Nc4cc(OC)c(OC)c(OC)c4)n3)C2)c1 (centres unmarked) and stop.
*A* 0

*Q* Specify %Inh for "C[C@@H](Oc1cc(-n2cnc3ccc(-c4ccncc4)cc32)sc1C(N)=O)c1ccccc1Cl" and stop.
*A* 70

*Q* Specify %Inh for COC(=O)c1cccc(NC(=O)NC2CCN(c3ccnc(Nc4cc(OC)c(OC)c(OC)c4)n3)C2)c1 (centres unmarked) and stop.
*A* 0

*Q* Specify %Inh for "COc1cc2nccc(Nc3ccc(Oc4ccccc4)cc3)c2cc1OC.Cl" and stop.
*A* 0

*Q* Specify %Inh for "Cc1ccn2nc(-c3ccc(F)cc3)c(-c3ccncc3)c2c1.Cl" and stop.
*A* 0

*Q* Specify %Inh for "O=C(Nc1cccc(Oc2ccc3nccn3n2)c1)Nc1cccc(C(F)(F)F)c1" and stop.
*A* 0

*Q* Specify %Inh for "Cc1ccc(C(=O)Nc2ccc(Oc3ccc4nc(NC(=O)C5CC5)cn4c3)c(F)c2)c(=O)n1-c1ccccc1" and stop.
*A* 0

*Q* Specify %Inh for "COC(=O)Nc1nc2cc(Oc3ccc(NC(=O)Nc4cc(C(F)(F)F)ccc4Cl)cc3)ccc2[nH]1.Cl" and stop.
*A* 2

*Q* Specify %Inh for "Cl.c1ccc(Oc2ccc(Nc3ccnc4cc(-c5ccc(CN6CCNCC6)o5)ccc34)cc2)nc1" and stop.
*A* 0

*Q* Specify %Inh for "Cn1ccc2ncnc(Oc3ccc(NC(=O)Nc4cccc(C(F)(F)F)c4)c(Cl)c3)c21" and stop.
*A* 2

*Q* Specify %Inh for "CCOC(=O)N1CCC(n2cnc(-c3ccc(F)cc3)c2-c2ccnc(N)n2)CC1" and stop.
*A* 24

====

# System: SRPK1
# cond: concentration: 1 μM,replicates: in singlicate; n = 1
Catalogue of %Inh readings, one per entry.
Numeric only. Scale: %

>>> readout_value("CS(=O)(=O)c1cccc(CNc2nc(Nc3ccc4c(c3)[C@@H]3C[C@@H]4CNC3=O)ncc2C(F)(F)F)c1")
91.6
>>> readout_value("CCn1c(-c2nonc2N)nc2cncc(Br)c21")
0
>>> readout_value("Cn1cc(-c2cccc3c(N)c(C(N)=O)nnc23)cn1")
45
>>> readout_value("C[C@@H](Oc1cc(-n2cnc3cc(-c4ccncc4)ccc32)sc1C(N)=O)c1ccccc1Cl")
89
>>> readout_value("COc1cccc(C2=C(Nc3cccc(Cl)c3)C(=O)NC2=O)c1")
42

*Q* Specify %Inh for "Cn1ccc2ncnc(Oc3ccc(NC(=O)Nc4cncc(C(F)(F)F)c4)c(Cl)c3)c21" and stop.
*A* 73

*Q* Specify %Inh for "CSc1nccc(-c2c(-c3ccc(F)cc3)ncn2CCCN2CCOCC2)n1.Cl" and stop.
*A* 0

*Q* Specify %Inh for COc1ccc(Nc2nccc(N3CCC(NC(=O)c4cccc(C#N)c4)C3)n2)cc1 (stereo not drawn) and stop.
*A* 36

*Q* Specify %Inh for "CN(c1ccc2c(c1)nc(NCc1ccc(F)cc1)n2C)c1ccnc(Nc2ccc(CS(C)(=O)=O)cc2)n1.Cl" and stop.
*A* 41

*Q* Specify %Inh for "Cc1ccc(Nc2ccnc(Nc3ccc4c(c3)CS(=O)(=O)C4)n2)cc1O.Cl" and stop.
*A* 99.2

*Q* Specify %Inh for "CC(C)c1nc(-c2cccc(NS(=O)(=O)c3ccccc3)c2)c(-c2ccnc(Nc3ccc4c(c3)CN(C)CC4)n2)s1" and stop.
*A* 49

*Q* Specify %Inh for "C[C@@H]1CNc2c(sc3ccc4nc(-c5ccc(O)cc5)ccc4c23)C(=O)N1" and stop.
*A* 0

*Q* Specify %Inh for "Cl.Cl.NC[C@H](CC1CCCCC1)NC(=O)c1ccc(-c2ccnc3[nH]ccc23)s1" and stop.
*A* 85

*Q* Specify %Inh for "Cl.c1ccc(Oc2ccc(Nc3ccnc4cc(-c5ccc(CN6CCNCC6)o5)ccc34)cc2)nc1" and stop.
*A* 0

*Q* Specify %Inh for COc1cccc(CNC(=O)NC2CCN(c3ccnc(Nc4cc(OC)c(OC)c(OC)c4)n3)C2)c1 (stereo not drawn) and stop.
*A* 39

*Q* Specify %Inh for N#Cc1cccc(C(=O)NC2CCN(c3ccnc(Nc4ccc(F)cc4)n3)C2)c1 (stereo not drawn) and stop.
*A* 40

*Q* Specify %Inh for "Cl.Nc1n[nH]c2cc(-c3ccccn3)ccc12" and stop.
*A* 0

*Q* Specify %Inh for "O=c1[nH]cc(-c2ccc(O)cc2)c2sc(-c3ccncc3)cc12" and stop.
*A* 21
